Each entry below carries its recorded EC50.
Molecular target: Zinc finger protein mex-5 (Caenorhabditis elegans)
Sequence (Q9XUB2 whole entry): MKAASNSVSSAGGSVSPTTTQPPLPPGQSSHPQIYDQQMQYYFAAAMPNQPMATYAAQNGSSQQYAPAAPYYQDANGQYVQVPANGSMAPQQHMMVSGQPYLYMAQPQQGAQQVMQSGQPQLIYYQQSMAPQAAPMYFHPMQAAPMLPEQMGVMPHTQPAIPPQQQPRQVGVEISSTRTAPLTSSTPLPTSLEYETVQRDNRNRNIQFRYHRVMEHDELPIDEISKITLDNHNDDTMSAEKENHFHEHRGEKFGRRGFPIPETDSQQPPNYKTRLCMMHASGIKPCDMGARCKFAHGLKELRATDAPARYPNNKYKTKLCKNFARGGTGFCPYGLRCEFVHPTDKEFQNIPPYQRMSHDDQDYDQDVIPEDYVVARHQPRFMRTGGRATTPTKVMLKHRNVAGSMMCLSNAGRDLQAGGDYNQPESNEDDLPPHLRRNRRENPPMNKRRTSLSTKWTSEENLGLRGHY
Test: potency of MEX-5 RNA-binding blockers – biochemical, C. elegans, fluorescence polarization, dose response (AID 1960)
The source made the active and inactive calls.
QUANTITY_KIND: EC50

compound=Cn1c(=O)cc2c3c(c(N4CCCCC4)ccc31)C(=O)c1ccccc1-2 measured_result="25.9 µM (active)"
compound=COC(=O)c1cccc(-n2c(C)cc(C=O)c2C)c1C measured_result="> 300 µM (not active)"
compound=COc1cc2[nH]c(C(=O)NN)c(N)c2cc1OC measured_result="18.5 µM (active)"
compound=O=C(CNC(=O)/C=C/c1ccco1)N=Nc1c(O)[nH]c2ccccc12 measured_result="5.49 µM (active)"
compound=O=C1c2ccccc2C(=O)c2[nH]c(O)nc21 measured_result="17.9 µM (active)"
compound="Cc1ccc2nc3c(cc(C(=O)NCC4CCCO4)c(=N)n3C3CCCC3)c(=O)n2c1 (stereo unspecified)" measured_result="> 300 µM (not active)"

###

Each entry below carries its recorded EC50.
Target: Heat shock factor protein 1 (Mus musculus, UniProt P38532)
Sequence (P38532 whole entry): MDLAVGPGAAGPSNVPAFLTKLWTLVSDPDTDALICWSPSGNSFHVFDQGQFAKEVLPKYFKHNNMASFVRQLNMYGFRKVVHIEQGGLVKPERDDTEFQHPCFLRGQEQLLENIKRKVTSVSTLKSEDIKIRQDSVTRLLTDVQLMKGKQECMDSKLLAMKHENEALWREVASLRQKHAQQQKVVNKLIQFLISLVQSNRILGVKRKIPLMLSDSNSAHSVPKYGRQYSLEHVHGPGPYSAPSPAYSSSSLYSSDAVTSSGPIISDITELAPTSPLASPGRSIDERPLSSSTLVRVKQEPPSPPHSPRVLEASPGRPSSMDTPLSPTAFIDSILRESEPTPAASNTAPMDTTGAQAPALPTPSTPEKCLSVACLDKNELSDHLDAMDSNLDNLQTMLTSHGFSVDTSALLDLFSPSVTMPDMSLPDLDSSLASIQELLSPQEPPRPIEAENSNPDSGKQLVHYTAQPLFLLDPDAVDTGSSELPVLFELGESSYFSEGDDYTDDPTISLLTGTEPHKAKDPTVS
Assay: decrease of HSF1-responsive luciferase luminescence – cell-based, NIH3T3, dose retest, confirmation (AID 2382);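 note: NIH3T3 fibroblasts with HSF1-driven luciferase reporter stressed by proteasome inhibitor MG132; luminescence from HSF1-driven luciferase expression after 8 hours of MG132 stress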
Assay type: functional
Calls of active or inactive are those of the source.
QUANTITY_KIND: EC50

molecule=O=C(N/N=C/c1ccc(F)cc1)c1ccc(OCc2ccccc2)cc1 quantity_kind=EC50 measured_result="> 195 µM (not active)"
molecule=COc1cccc(-n2ccnc2SCC(=O)Nc2ccccc2F)c1 quantity_kind=EC50 measured_result="> 195 µM (not active)"
molecule=Cc1nc(Nc2ccc3c(c2)OCCO3)c2nnn(Cc3ccccc3Cl)c2n1 quantity_kind=EC50 measured_result="3.43 µM (active)"
molecule="CC1CCCN(CCCOc2ccc(Cl)cc2Br)C1 (stereo unspecified)" quantity_kind=EC50 measured_result="> 195 µM (not active)"
molecule="COc1ccc(C(C(=O)NC2CCCCC2)N(C(=O)CCl)c2cccc(Cl)c2)cc1 (stereo unspecified)" quantity_kind=EC50 measured_result="0.691 µM (active)"
molecule=CCCc1nnc(NC(=O)CCC(=O)N2CCN(S(=O)(=O)c3ccc(F)cc3)CC2)s1 quantity_kind=EC50 measured_result="> 195 µM (not active)"

###

Biological target: UniProtKB O75030
Sequence (O75030 whole entry): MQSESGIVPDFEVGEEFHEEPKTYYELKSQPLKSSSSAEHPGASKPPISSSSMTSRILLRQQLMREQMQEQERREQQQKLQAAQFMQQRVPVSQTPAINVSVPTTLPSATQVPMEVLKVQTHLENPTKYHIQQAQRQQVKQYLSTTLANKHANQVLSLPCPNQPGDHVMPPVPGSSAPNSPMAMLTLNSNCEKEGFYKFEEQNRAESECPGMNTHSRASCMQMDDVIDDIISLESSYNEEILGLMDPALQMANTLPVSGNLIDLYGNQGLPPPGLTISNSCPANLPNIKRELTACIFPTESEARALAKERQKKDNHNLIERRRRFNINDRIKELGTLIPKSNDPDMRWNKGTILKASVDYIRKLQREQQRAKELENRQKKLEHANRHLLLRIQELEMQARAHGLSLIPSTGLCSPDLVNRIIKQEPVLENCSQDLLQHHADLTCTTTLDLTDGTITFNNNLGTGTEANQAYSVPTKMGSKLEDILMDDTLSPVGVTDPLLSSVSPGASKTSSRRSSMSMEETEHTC
Assay: reducers of TRPM1 reporter luminescence, concentration series – cell-based, SK-MEL-5, cherry-picked, set 3, MITF inhibitor project, dose response (AID 493073);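 note: SK-MEL-5 melanoma cells with luciferase driven by the MITF target TRPM1 promoter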
Format: functional
Activity calls are given as the source filed them.
Labels: 1.0 for active, 0.0 for inactive

molecule=O=C(O)c1cccc(N/N=C/c2ccc(OC(F)(F)F)cc2)c1 label_class=1.0
molecule=CCCCN=c1nc(S)n(-c2ccccc2)c(C)c1C(C)=O label_class=0.0
molecule="C/C(=N\\NC(=O)C(C)Oc1ccc([N+](=O)[O-])cc1)c1ccccn1 (configuration not stated)" label_class=1.0
molecule=O=C(/C=C/c1ccc(Cl)cc1)c1ccc([N+](=O)[O-])o1 label_class=1.0
molecule=CC(/C=N/NC(=O)c1cc(-c2ccncc2)nc2ccccc12)=C\c1ccco1 label_class=1.0
molecule=Cc1onc(-c2ccccc2)c1C(=O)N/N=C/c1ccc([N+](=O)[O-])s1 label_class=1.0
molecule=Nc1ncnc(Sc2ncccn2)c1[N+](=O)[O-] label_class=1.0

###

Target: Metabotropic glutamate receptor 5 (Rattus norvegicus, UniProt P31424)
Assay: Identification of a glycine sulfonamide based non-MPEP site positive allosteric potentiator (PAM) of mGlu5 (calcium_assay).
Type: functional
Each entry below carries its recorded EC50.
QUANTITY_KIND: EC50

compound=CS(=O)(=O)N(CC(=O)Nc1ccc(F)nc1)c1ccccc1Cl quantity_kind=EC50 measured_result="4.4 µM"
compound="CS(=O)(=O)N1c2ccccc2CCC1C(=O)Nc1ccncc1 (configuration not stated)" quantity_kind=EC50 measured_result="10 µM (inconclusive)"

###

Assay: Late stage assay provider results from the probe development effort to identify inhibitors of Protein Phosphatase Methylesterase 1 (PME-1): luminescence-based […] dose response assay to determine cytotoxicity of inhibitor compounds. [Related pubchem assays (depositor defined):AID2130, AID2143, AID2171, AID2174, AID2177, AID2232, AID2233, AID2291, AID2363, AID2365, AID2366, AID2368, AID2369, AID2371, AID463124, AID463130, AID463131, AID463132, AID463146, AID463149] Panel member name: Serum-free Media
Format: toxicity
Calls of active or inactive are those of the source.
QUANTITY_KIND: CC50

substance_smiles=CC[C@]1(c2ccccc2C)C(=O)N(C(=O)OC)N1C(=O)OC quantity_kind=CC50 measured_result="> 50 µM (inactive)"

###

Target: Voltage-gated N-type calcium channel alpha-1B subunit/Amyloid beta A4 precursor protein-binding family A member 1 (Homo sapiens, UniProt Q00975+Q02410)
Sequence (Q00975 whole entry): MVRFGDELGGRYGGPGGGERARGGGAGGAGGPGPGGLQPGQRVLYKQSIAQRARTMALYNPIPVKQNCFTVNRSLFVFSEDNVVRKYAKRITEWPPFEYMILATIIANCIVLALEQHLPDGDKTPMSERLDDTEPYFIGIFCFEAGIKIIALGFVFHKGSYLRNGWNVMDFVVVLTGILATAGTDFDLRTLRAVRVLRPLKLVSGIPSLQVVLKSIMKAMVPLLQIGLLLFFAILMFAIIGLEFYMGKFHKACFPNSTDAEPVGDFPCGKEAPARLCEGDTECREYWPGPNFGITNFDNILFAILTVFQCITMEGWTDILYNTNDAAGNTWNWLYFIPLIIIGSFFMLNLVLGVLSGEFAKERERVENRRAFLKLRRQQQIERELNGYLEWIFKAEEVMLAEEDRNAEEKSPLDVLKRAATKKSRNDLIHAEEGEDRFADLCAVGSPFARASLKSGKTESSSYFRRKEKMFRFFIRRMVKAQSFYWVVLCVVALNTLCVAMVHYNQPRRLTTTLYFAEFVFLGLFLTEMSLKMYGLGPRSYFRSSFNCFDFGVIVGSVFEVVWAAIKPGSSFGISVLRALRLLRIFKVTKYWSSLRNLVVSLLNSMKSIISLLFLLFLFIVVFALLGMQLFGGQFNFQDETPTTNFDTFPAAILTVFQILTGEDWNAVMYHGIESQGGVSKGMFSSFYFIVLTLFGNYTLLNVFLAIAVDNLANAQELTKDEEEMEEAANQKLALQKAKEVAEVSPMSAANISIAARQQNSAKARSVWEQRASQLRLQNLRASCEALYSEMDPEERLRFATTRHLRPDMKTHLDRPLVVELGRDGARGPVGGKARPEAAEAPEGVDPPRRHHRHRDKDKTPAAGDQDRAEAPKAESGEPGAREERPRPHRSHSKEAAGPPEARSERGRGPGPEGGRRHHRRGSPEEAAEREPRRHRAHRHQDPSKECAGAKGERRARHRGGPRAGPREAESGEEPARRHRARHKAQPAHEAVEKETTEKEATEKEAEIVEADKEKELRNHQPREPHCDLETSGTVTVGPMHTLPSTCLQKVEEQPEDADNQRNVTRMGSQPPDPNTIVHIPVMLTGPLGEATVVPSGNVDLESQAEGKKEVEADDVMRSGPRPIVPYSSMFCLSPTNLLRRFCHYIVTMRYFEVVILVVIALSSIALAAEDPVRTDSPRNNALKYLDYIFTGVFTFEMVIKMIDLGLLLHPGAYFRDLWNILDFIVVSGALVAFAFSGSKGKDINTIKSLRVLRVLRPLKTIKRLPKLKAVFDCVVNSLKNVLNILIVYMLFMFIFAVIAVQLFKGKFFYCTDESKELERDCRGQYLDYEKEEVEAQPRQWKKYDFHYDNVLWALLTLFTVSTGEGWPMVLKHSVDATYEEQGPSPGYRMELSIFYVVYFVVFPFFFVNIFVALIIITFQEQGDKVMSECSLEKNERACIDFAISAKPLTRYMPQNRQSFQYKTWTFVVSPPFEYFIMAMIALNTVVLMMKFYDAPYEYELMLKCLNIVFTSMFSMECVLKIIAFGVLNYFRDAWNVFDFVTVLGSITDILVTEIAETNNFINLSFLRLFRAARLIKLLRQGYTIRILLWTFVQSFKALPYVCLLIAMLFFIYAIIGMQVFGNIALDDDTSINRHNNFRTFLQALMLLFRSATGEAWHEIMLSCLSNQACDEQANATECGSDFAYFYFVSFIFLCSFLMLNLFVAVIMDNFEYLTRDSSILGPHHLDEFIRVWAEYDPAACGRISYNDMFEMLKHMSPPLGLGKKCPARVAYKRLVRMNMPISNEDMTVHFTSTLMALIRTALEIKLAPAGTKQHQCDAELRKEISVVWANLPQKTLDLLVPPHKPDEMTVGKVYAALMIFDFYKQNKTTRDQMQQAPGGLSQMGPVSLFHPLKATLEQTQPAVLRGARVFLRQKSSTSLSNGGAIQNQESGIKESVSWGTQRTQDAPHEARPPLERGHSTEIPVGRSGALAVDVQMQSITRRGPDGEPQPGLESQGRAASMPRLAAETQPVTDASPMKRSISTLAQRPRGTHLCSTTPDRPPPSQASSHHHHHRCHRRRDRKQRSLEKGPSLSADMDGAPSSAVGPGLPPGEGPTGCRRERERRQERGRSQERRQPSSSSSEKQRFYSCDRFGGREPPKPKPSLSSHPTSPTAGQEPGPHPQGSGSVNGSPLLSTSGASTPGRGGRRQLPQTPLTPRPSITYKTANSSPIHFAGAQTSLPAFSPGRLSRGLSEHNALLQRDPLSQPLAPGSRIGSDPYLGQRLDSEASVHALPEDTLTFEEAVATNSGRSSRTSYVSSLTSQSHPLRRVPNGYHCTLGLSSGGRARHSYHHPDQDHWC
Sequence (Q02410 whole entry): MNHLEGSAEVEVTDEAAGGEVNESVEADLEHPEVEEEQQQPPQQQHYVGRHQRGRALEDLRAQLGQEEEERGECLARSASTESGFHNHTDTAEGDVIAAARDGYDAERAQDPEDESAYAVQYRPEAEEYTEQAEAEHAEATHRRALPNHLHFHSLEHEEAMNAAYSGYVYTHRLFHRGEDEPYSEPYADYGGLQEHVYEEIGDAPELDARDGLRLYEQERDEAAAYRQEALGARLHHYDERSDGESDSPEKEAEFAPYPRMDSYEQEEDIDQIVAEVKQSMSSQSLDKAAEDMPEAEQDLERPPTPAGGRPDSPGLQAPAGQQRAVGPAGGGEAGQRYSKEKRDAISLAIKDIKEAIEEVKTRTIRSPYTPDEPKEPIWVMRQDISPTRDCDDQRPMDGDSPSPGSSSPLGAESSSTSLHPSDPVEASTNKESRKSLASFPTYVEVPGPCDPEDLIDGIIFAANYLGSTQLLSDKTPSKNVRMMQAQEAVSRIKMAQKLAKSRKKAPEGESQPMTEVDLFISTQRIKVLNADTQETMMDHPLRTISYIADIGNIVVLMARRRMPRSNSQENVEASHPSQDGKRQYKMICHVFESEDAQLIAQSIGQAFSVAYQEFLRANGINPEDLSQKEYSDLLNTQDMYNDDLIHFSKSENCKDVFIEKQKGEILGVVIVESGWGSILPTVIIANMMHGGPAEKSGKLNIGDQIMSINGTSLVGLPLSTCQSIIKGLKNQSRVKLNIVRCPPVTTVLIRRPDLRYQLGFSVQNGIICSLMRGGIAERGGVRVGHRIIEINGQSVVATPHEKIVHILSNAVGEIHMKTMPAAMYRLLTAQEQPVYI
Format: protein assay
Activity calls are given as the source filed them.
Labels: y for active, n for inactive

compound=O=[N+]([O-])c1ccc(-c2cc(-c3ccc(Cl)cc3)n[nH]2)cc1 label_class=n
compound="N#CC1=C(N)N=C(S)C(C(N)=O)C1c1ccccc1F (stereo not given)" label_class=n
compound=N#Cc1c(C#N)c(O)c2ccccc2c1O label_class=y
compound=O=C(CNC(=O)/C=C/c1ccco1)N=Nc1c(O)[nH]c2ccccc12 label_class=y
compound=Cc1cc(=O)oc2cc(OCC(=O)N/N=C/c3cc([N+](=O)[O-])ccc3O)ccc12 label_class=n

###

AC50 data for Cytochrome P450 2D6 (Homo sapiens) follow.
QUANTITY_KIND: AC50

molecule="O=C(C1CCCN(S(=O)(=O)c2cccc3nsnc23)C1)N1CC=C(c2ccccc2)CC1 (stereo not given)" quantity_kind=AC50 measured_result="5.01 µM (inconclusive)"
molecule=Cc1ccc(NC(=O)/C(=C\c2ccc3c(c2)OCO3)NC(=O)c2ccco2)cc1 quantity_kind=AC50 measured_result="15.8 µM (inconclusive)"
molecule=O=C(CN1C(=O)c2ccccc2S1(=O)=O)Nc1ccccc1 quantity_kind=AC50 measured_result="17.8 µM (inconclusive)"
molecule=Cn1cnc2c(NC3CCCC3)ncnc21 quantity_kind=AC50 measured_result="20 µM (inconclusive)"
molecule=COc1cc(C(=O)NCCC(=O)NCc2ccc3c(c2)OCO3)cc(OC)c1OC quantity_kind=AC50 measured_result="25.1 µM (inconclusive)"
molecule=O=C(NCCc1c[nH]c2ccccc12)C1CCN(c2nnc(N3CCCC3=O)s2)CC1 quantity_kind=AC50 measured_result="10 µM (inconclusive)"
molecule=Cc1ccc(S(=O)(=O)NCCC(=O)NCc2ccccc2)cc1 quantity_kind=AC50 measured_result="25.1 µM (inconclusive)"
molecule=Cc1ccccc1NC(=O)CN1CCC(n2nnc3ccccc32)CC1 quantity_kind=AC50 measured_result="0.01 µM (inconclusive)"
molecule=CC(=O)N1CCC2(CCCN(Cc3nccs3)C2)CC1 quantity_kind=AC50 measured_result="15.8 µM (inconclusive)"
molecule=O=S(=O)(c1ccc(Cl)s1)N1CCc2ccccc2C1 quantity_kind=AC50 measured_result="31.6 µM (inconclusive)"
molecule=COc1ccc(CNc2ccnc(-c3c(C)noc3C)n2)c(OC)c1 quantity_kind=AC50 measured_result="39.8 µM (inconclusive)"
molecule=Cc1ccc(NC(=O)c2cc([N+](=O)[O-])ccc2NCc2cccnc2)cc1Cl quantity_kind=AC50 measured_result="0.794 µM (inconclusive)"
molecule=O=C1c2ccccc2S(=O)(=O)N1CCCCN1CCN(c2ncccn2)CC1 quantity_kind=AC50 measured_result="20 µM (inconclusive)"
molecule=COc1ccc(CCNC(=O)CCN2C(=O)COc3ccc(C)cc32)cc1OC quantity_kind=AC50 measured_result="39.8 µM (inconclusive)"
molecule=c1ccc2c(NC3CCNCC3)nc(-c3ccoc3)nc2c1 quantity_kind=AC50 measured_result="7.94 µM (inconclusive)"
molecule=O=C(c1cnccn1)N1CCC2(CCCN(Cc3ccccc3)C2)CC1 quantity_kind=AC50 measured_result="7.94 µM (inconclusive)"
molecule=COc1ccccc1-c1cc(NCc2cccc(C)c2)ncn1 quantity_kind=AC50 measured_result="20 µM (inconclusive)"
molecule=CCN(CC)N=Nc1[nH]nc2nc(C)cc(C)c12 quantity_kind=AC50 measured_result="12.6 µM (inconclusive)"
molecule=Cc1nc2cnc(Oc3ccccc3)nc2n(Cc2cccs2)c1=O quantity_kind=AC50 measured_result="31.6 µM (inconclusive)"
molecule=O=C(NCCc1ccc(O)cc1)c1ccc(Cl)cc1 quantity_kind=AC50 measured_result="25.1 µM (inconclusive)"
